Measured melting point, listed per entry for reference.
reported_property: melting point

>>> result("C=C1CN(Cc2ccc(C(=O)Nc3ccccc3N)cc2)C(=O)c2ccc(C(=O)NCCN)cc21")
"172 to 174 °C (dec.)"
>>> result("C=C1CN(Cc2ccc(C(=O)Nc3ccccc3N)cc2)C(CC(=O)N2CCCCC2)c2ccccc21 (stereo not shown)")
"89 to 91 °C"
>>> result("C=C1CN(Cc2ccc(C(=O)Nc3ccccc3N)cc2)C(CC(=O)N2CCOCC2)c2ccccc21 (stereo not shown)")
"99 to 101 °C"
>>> result("C=C1CN(Cc2ccc(C(=O)Nc3ccccc3N)cc2)C(CC(=O)OC)c2ccccc21 (stereo not shown)")
"151 to 153 °C"
>>> result("C=C1CN(Cc2ccc(C(=O)Nc3ccccc3N)cc2)C(CC#N)c2ccccc21 (stereo not shown)")
"93 to 95 °C"
>>> result("C=C1CN(Cc2ccc(C(=O)Nc3ccccc3N)cc2)C(=O)c2ccc(C(=O)OC)cc21")
"196 to 198 °C"
>>> result("C=C1CN(S(=O)(=O)c2ccc(C(=O)Nc3ccccc3N)cc2)C(CC#N)c2ccccc21 (stereo not shown)")
"213 to 215 °C"
>>> result("C=C1CN(Cc2ccc(C(=O)Nc3ccccc3N)cc2)C(CC(=O)O)c2ccccc21 (stereo not shown)")
"> 230 °C"
>>> result("C=C1CN(Cc2ccc(C(=O)Nc3ccccc3N)cc2)C(CC(=O)Nc2ccccc2N)c2ccccc21 (stereo not shown)")
"135 to 137 °C"
>>> result("C=C1CN(Cc2ccc(C(=O)Nc3ccccc3N)cc2)C(CC(=O)OCC)c2ccccc21 (stereo not shown)")
"111 to 113 °C"

----------
Measured IC50, listed per entry for reference.
- system_under_test: HDAC 6 (Homo sapiens, UniProt Q9UBN7)
- Sequence (Q9UBN7 whole entry, species assumed, canonical isoform): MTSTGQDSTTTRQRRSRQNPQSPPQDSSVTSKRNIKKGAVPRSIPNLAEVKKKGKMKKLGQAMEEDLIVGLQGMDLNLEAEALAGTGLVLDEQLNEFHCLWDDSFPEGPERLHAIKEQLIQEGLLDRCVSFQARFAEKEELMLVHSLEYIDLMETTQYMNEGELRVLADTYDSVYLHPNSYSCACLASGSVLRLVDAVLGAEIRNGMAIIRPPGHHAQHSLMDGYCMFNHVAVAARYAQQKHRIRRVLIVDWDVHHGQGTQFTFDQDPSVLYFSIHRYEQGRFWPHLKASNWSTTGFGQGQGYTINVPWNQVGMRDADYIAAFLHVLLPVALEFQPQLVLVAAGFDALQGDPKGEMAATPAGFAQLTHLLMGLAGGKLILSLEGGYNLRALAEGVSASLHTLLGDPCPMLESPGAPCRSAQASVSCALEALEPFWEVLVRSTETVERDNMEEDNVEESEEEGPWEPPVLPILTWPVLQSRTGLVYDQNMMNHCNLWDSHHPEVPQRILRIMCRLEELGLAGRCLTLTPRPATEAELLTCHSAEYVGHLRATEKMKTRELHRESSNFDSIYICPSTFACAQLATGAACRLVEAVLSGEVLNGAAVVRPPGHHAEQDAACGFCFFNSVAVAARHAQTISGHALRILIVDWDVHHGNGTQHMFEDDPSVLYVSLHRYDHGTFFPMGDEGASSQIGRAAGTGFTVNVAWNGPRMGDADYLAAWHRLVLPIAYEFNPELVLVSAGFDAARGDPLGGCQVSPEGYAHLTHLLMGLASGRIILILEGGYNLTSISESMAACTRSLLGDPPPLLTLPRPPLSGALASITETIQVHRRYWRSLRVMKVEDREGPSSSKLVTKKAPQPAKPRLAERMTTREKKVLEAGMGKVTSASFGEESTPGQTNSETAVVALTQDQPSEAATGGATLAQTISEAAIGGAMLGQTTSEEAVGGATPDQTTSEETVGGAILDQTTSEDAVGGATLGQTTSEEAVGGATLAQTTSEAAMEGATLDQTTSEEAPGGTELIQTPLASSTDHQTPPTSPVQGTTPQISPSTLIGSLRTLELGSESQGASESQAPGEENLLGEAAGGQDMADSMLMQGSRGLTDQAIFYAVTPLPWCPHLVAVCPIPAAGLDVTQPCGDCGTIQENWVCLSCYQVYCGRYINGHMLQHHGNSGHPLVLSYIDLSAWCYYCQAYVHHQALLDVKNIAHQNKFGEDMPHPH
- experiment_summary: Fluorescence-based HDAC isoform assay with electrophoretic separation, HDAC 6
- Type: biochemical
- condition_context: isolated 6×His-tagged isoform, 1 μM FAM-labeled acetylated peptide, 17 h at 25° C.
reported_property: IC50

>>> result("C=C1CN(Cc2ccc(C(=O)Nc3ccccc3N)cc2)C(CC(=O)O)c2ccccc21 (centres unmarked)")
"> 30 µM"
>>> result("C=C1CN(Cc2ccc(C(=O)Nc3ccccc3N)cc2)C(=O)c2ccccc21")
"> 30 µM"

----------
- system_under_test: HDAC 7-CAT (Homo sapiens)
- Construct: For HDAC-4 and 7 only catalytic domains were expressed (HDAC-4 CAT and HDAC-7 CAT); 6xHis
- Sequence (Q8WUI4 512-865 limits assumed): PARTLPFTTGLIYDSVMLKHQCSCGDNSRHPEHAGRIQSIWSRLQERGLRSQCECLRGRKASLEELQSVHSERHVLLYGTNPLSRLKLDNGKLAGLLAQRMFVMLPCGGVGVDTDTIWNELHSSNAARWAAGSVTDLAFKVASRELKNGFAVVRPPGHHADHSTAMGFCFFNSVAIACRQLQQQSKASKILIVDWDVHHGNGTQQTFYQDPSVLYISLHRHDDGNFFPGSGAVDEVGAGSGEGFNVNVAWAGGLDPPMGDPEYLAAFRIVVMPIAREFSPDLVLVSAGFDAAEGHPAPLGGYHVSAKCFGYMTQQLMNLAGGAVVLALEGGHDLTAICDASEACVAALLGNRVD
- experiment_summary: Fluorescence-based HDAC isoform assay with electrophoretic separation, HDAC 7-CAT
- condition_context: catalytic domain only, 1 μM FAM-labeled acetylated peptide, 17 h at 25° C.
reported_property: IC50 (µM)

>>> numeric_readout("C=C1CN(Cc2ccc(C(=O)Nc3ccccc3N)cc2)C(=O)c2ccccc21")
7.53

----------
Measured IC50, listed per entry for reference.
- system_under_test: HDAC 4-CAT (Homo sapiens, UniProt P56524)
- Construct: For HDAC-4 and 7 only catalytic domains were expressed (HDAC-4 CAT and HDAC-7 CAT); 6xHis
- Sequence (P56524 655-1084 limits assumed): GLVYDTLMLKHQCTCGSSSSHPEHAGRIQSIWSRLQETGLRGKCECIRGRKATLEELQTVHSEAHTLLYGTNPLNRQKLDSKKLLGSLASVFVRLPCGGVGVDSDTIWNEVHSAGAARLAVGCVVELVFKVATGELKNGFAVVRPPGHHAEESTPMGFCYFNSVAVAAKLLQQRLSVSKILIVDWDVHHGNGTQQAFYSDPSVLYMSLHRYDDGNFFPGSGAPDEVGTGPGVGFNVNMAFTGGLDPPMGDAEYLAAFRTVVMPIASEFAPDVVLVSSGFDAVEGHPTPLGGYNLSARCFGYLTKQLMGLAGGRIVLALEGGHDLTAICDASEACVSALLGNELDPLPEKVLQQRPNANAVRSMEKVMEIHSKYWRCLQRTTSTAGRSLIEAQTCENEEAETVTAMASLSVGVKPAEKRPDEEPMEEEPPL
- experiment_summary: Fluorescence-based HDAC isoform assay with electrophoretic separation, HDAC 4-CAT
- condition_context: catalytic domain only, 1 μM FAM-labeled acetylated peptide, 17 h at 25° C.
reported_property: IC50

>>> result("C=C1CN(Cc2ccc(C(=O)Nc3ccccc3N)cc2)C(CC(=O)O)c2ccccc21 (centres unmarked) [Example 9]")
"> 30 µM"
>>> result("C=C1CN(Cc2ccc(C(=O)Nc3ccccc3N)cc2)C(=O)c2ccccc21 [Example 7]")
"9.22 µM"
